Test system: Saccharomyces cerevisiae BY4741 SeMeCo community
Protocol summary: z-score of subpopulation abundance vs DMSO median, subpopulation auxotrophic for LUM; higher = larger share of this subpopulation than in DMSO controls
Condition context: 10 µM; 24 h; SM minimal medium; subpopulation (auxotrophy): LUM
Structures can show the parent of a compound that is named as a salt.
Where z-score of subpopulation abundance equals or exceeds 0.2, the correct label is condition met; where it does not, the label is condition not met.

# Compound, Label value
data = [
    ("CC1(C)S[C@@H]2[C@H](NC(=O)Cc3ccccc3)C(=O)N2[C@H]1C(=O)O.CCN(CC)CCOC(=O)c1ccc(N)cc1", "condition met"),
    ("COc1ccnc(C[S+]([O-])c2nc3cc(OC(F)F)ccc3[nH]2)c1OC (configuration not stated) [Pantoprazole]", "condition not met"),
    ("CC/C(=C(\\c1ccccc1)c1ccc(OCCN(C)C)cc1)c1ccccc1 [Tamoxifen Citrate]", "condition met"),
    ("Cc1cc(NS(=O)(=O)c2ccc(N)cc2)no1", "condition not met"),
    ("CNC1CCCN(c2c(F)cc3c(=O)c(C(=O)O)cn(C4CC4)c3c2OC)C1 (configuration not stated)", "condition not met"),
    ("CN1[C@@H]2CC[C@H]1C[C@@H](OC(=O)c1c[nH]c3ccccc13)C2 [Tropisetron HCl]", "condition not met"),
    ("Cc1ccc(-c2cc(C(F)(F)F)nn2-c2ccc(S(N)(=O)=O)cc2)cc1", "condition not met"),
]
